system: L929; experiment: Cytotoxicity against mouse L929 cells after 5 days by MTS assay; type: cell-based; settings: L929, 120 h
pIC50: −log10 of the molar value.
Reported endpoint: pIC50

Record smiles | Result
COc1cc(OC)c2c(=O)c(OCC(=O)c3ccc(OC)c(OC)c3)c(-c3ccc(OC)c(OC)c3)oc2c1 | < 4.00

### Prompt I would be grateful if you could share the reported pIC50 for "COc1cc(OC)c2c(=O)c(OC(=O)c3cc(OC)c(OC)c(OC)c3)c(-c3ccc(OC)c(OC)c3)oc2c1" .
### Response 4.13

### Prompt Fill blank: measured pIC50 of the compound "COc1ccc(C(=O)OCCOc2c(-c3ccc(OC)c(OC)c3)oc3cc(OC)cc(OC)c3c2=O)cc1" is ____.
### Response < 4.00

### Prompt State the recorded pIC50 for this entry: "COc1cc(OC)c2c(=O)c(OCCOC(=O)/C=C/c3cc(OC)c(OC)c(OC)c3)c(-c3ccc(OC)c(OC)c3)oc2c1"
### Response < 4.00
